FYI, the data here is from patent US20240382483A1.

target-of-assay: intracellular phosphorylation of EGFR in NCI-H1975 cell line that harbors the EGFR L858R T790M mutations (Homo sapiens, UniProt P00533, L858R/T790M)
Construct: NCI-H1975 cell line that harbors the EGFR L858R T790M mutations (ATCC, CRL-5908); host or cells: NCI-H1975
Sequence (P00533 25-1210 T790M/L858R): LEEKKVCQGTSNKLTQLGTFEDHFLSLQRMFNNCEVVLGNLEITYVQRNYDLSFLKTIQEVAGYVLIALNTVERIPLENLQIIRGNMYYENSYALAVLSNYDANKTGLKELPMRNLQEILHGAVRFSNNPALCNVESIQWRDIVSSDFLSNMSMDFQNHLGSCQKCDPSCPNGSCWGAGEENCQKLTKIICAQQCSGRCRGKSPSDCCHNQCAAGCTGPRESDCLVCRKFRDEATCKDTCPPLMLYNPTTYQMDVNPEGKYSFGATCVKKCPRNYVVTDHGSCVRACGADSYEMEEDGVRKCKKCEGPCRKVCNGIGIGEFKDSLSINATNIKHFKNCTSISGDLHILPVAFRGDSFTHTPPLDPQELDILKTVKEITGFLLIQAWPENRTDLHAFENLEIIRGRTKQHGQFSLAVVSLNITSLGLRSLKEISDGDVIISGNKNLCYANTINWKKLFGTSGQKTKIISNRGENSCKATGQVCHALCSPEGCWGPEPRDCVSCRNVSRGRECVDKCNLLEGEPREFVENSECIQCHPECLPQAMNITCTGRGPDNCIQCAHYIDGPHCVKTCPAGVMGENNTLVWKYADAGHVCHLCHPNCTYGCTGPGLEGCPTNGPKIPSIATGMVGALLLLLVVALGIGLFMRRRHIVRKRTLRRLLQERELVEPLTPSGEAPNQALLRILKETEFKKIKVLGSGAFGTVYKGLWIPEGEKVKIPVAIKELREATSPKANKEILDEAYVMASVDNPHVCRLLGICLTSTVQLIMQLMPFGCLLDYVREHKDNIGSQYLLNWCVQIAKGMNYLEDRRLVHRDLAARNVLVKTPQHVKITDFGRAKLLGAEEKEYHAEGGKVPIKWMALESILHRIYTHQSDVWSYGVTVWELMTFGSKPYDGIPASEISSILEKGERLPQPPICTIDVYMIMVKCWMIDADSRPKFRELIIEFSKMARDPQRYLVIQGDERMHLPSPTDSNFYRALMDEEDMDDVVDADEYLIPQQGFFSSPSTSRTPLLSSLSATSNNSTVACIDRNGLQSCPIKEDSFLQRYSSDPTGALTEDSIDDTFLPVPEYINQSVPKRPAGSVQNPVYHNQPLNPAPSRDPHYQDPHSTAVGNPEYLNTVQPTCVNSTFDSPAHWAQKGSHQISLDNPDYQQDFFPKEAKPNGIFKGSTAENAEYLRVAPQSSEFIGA
method: NCI-H1975 pEGFR AlphaLISA assay
Assay type: cell-based
study-conditions: NCI-H1975 cells (EGFR L858R T790M), p-EGFR (Tyr1068), 4-5 hours incubation; read-out: Ext pEGFR H1975 GMean IC50 (nM) Protocol: @Pharmaron AlphaLISA (Num)
Could you please report measured IC50 for the items listed next?

query: For CO[C@@H]1CCN(c2nccc(Nc3cc4c(C(C)C)cnc(N5C[C@H](O)[C@H]5C)c4cn3)n2)C[C@@H]1O (single isomer, unassigned) , what is its reported IC50?
result: 10 to 20 nM

query: For "CC(C)c1cnc(N2C[C@H](O)[C@H]2C)c2cnc(Nc3ccnc(N4CCC(C)(O)CC4)n3)cc12" , what is its reported IC50?
result: > 50 nM

query: For "CC(C)c1cnc(N2CC3(CCN(C)C3=O)C2)c2cnc(Nc3ccnc(N4CC[C@@H](O)[C@@](C)(F)C4)n3)cc12" , what is its reported IC50?
result: 30 to 50 nM

query: For CO[C@@H]1CCN(c2nccc(Nc3cc4c(C(C)C)cnc(N5CC6(CCS6(=O)=O)C5)c4cn3)n2)C[C@@H]1O (single isomer, unassigned) , what is its reported IC50?
result: 30 to 50 nM

query: For CC(C)c1cnc(N2CC[C@H]2C)c2cnc(Nc3cnnc(N4CC[C@@H](O)[C@@](C)(F)C4)n3)cc12 (single isomer, unassigned) , what is its reported IC50?
result: 10 to 20 nM

query: For "CC(C)c1ccc(N2C[C@H](n3ccnn3)[C@H]2C)c2cnc(Nc3ccnc(N4CCC(C)(O)CC4)n3)cc12" , what is its reported IC50?
result: 20 to 30 nM

query: For CC(C)c1cnc(N2C[C@H](O)[C@H]2C)c2cnc(Nc3ccnc(N4CC[C@@H](O)C5(CC5)C4)n3)cc12 (single isomer, unassigned) , what is its reported IC50?
result: 30 to 50 nM

query: For "CC(C)c1cnc(-c2cn(C)nn2)c2cnc(Nc3ccnc(N4CCC5(CCO5)CC4)n3)cc12" , what is its reported IC50?
result: > 50 nM

query: For "CC(C)c1cnc(N2CCC[C@H]2CN(C)C)c2cnc(Nc3ccnc(N4CC[C@@H](O)[C@@](C)(F)C4)n3)cc12" , what is its reported IC50?
result: 30 to 50 nM

query: For CC(C)c1cnc(N2CC[C@@H](CS(C)(=O)=O)C2)c2cnc(Nc3ccnc(N4CC[C@@H](O)[C@@](C)(F)C4)n3)cc12 (single isomer, unassigned) [Example 208] , what is its reported IC50?
result: 10 to 20 nM

query: For "CC(C)c1cnc(N2CC(CP(C)(C)=O)C2)c2cnc(Nc3ccnc(N4CC[C@@H](O)[C@@](C)(F)C4)n3)cc12" , what is its reported IC50?
result: > 50 nM

query: For "CC(C)c1cnc(N2C[C@@H](F)[C@@H](F)C2)c2cnc(Nc3ccnc(N4CC[C@@H](O)[C@@](C)(F)C4)n3)cc12" , what is its reported IC50?
result: > 50 nM
